tested on: ddY-strain male mice; test: Acute Toxicity Test (minimum lethal dose, oral); assay type: in vivo; conditions: seven days after administration
observable: MLD (minimum lethal dose)

Look over these answered cases.
CCCn1c(=O)c2nc(/C=C/c3cc(OC)cc(OC)c3)[nH]c2n(CCC)c1=O | > 100 mg/kg
CCCn1c(=O)c2c(nc(/C=C/c3cc(OC)c(OC)cc3Br)n2C)n(CCC)c1=O | > 300 mg/kg
CCn1c(=O)c2[nH]c(/C=C/c3cc(OC)c4c(c3)OCO4)nc2n(CC)c1=O | > 100 mg/kg
CCn1c(=O)c2[nH]c(/C=C/c3ccc(OC)c(Br)c3)nc2n(CC)c1=O | > 100 mg/kg
CCn1c(=O)c2c(nc(/C=C/c3ccc(OC)cc3OC)n2C)n(CC)c1=O | > 300 mg/kg

Batch: MLD (minimum lethal dose) for all items listed.
1. CCn1c(=O)c2c(nc(/C=C/c3cccc([N+](=O)[O-])c3)n2C)n(CC)c1=O
2. CCCn1c(=O)c2c(nc(/C=C/c3ccc(C)c(C)c3)n2C)n(CCC)c1=O
3. C#CCn1c(/C=C/c2ccc(OC)c(OC)c2)nc2c1c(=O)n(CCC)c(=O)n2CCC
4. CCn1c(=O)c2[nH]c(/C=C/c3cccc(Br)c3)nc2n(CC)c1=O
5. CCn1c(=O)c2c(nc(/C=C/c3ccccc3OC)n2C)n(CC)c1=O
6. CCn1c(=O)c2c(nc(C(F)=Cc3ccccc3)n2C)n(CC)c1=O (stereo in doubt)

stdout:
1. > 100 mg/kg
2. > 300 mg/kg
3. > 300 mg/kg
4. > 100 mg/kg
5. > 100 mg/kg
6. > 100 mg/kg

Hi! Can you tell me MLD (minimum lethal dose) for each of these compounds?
1. CCn1c(=O)c2c(nc(/C=C/c3cccc(Cl)c3)n2C)n(CC)c1=O
2. CCCn1c(=O)c2nc(/C=C/c3ccc(OC)c(OC)c3OC)[nH]c2n(CCC)c1=O
3. COc1ccc(/C=C/c2nc3c(=O)n(C)c(=O)n(C)c3[nH]2)c(OC)c1OC

stdout:
["> 300 mg/kg", "> 300 mg/kg", "> 300 mg/kg"]

###

test system: ddY-strain male mice; experiment: Acute Toxicity Test (minimum lethal dose, oral); format: in vivo; details: seven days after administration
So I've got a bunch of molecules here, and I need their MLD (minimum lethal dose) values.

Some solved entries appear below for comparison.
CCn1c(=O)c2[nH]c(/C=C/c3cccc(F)c3)nc2n(CC)c1=O [Compound 127] | > 100 mg/kg
CCn1c(=O)c2[nH]c(/C=C/c3ccc(-c4ccccc4)cc3)nc2n(CC)c1=O [Compound 170] | > 100 mg/kg
CCCn1c(=O)c2[nH]c(/C=C/c3ccc(OC)c4ccccc34)nc2n(CCC)c1=O [Compound 62] | > 100 mg/kg
CCCn1c(=O)c2nc(/C=C/c3cc(OC)c(OC)cc3OC)[nH]c2n(CCC)c1=O [Compound 23] | > 300 mg/kg
CCCn1c(=O)c2c(nc(/C=C/c3ccccc3F)n2C)n(CCC)c1=O [Compound 44] | > 100 mg/kg

Dear colleague, could you send me MLD (minimum lethal dose) for each of the items below? Thanks.
1. CCCn1c(=O)c2nc(/C=C/c3cc(OC)c(OC)c(OC)c3)[nH]c2n(CCC)c1=O [Compound 10]
2. CCn1c(=O)c2[nH]c(/C=C/c3ccc(OC)c(OC)c3)nc2n(CC)c1=O [Compound 73]
3. CCCn1c(=O)c2c(nc(/C=C/c3ccc(OC)c(OC)c3)n2C)n(CCC)c1=S [Compound 72]

stdout:
1. > 300 mg/kg
2. > 300 mg/kg
3. > 300 mg/kg

This collection of values is drawn from patent US5543415A.
